Property: Observed emission λmax; scope: individual compounds
Experiment: Absorption and fluorescence spectra, extinction coefficient, fluorescence quantum yield
Format: physicochemical
Details: Table 15, BuOH
Expressed in nm, but write only the number.

C[n+]1ccc(/C=C/C=C/C2=C([O-])c3ccccc3S2(=O)=O)cc1 | 640
C[n+]1ccc(/C=C/C2=C([O-])c3ccccc3S2(=O)=O)cc1 | 535

Quick one: Observed emission λmax for `Cn1c([O-])c(/C=C/C=C/c2cc[n+]3c(c2)C(C)(C)c2ccccc2-3)c(=O)n(C)c1=O` ? 654

Quick one: Observed emission λmax for `CC1(C)c2ccccc2-[n+]2ccc(/C=C/C3=C([O-])c4ccccc4S3(=O)=O)cc21` ? 567
